- tested.target: human PDE10A enzyme (Homo sapiens, UniProt Q9Y233)
- Construct: Human PDE10A full-length gene was transfected into Sf9 or COS-7 cells; His-tag; made in house; host or cells: Sf9 or COS-7 cells
- Sequence (Q9Y233 267-1055): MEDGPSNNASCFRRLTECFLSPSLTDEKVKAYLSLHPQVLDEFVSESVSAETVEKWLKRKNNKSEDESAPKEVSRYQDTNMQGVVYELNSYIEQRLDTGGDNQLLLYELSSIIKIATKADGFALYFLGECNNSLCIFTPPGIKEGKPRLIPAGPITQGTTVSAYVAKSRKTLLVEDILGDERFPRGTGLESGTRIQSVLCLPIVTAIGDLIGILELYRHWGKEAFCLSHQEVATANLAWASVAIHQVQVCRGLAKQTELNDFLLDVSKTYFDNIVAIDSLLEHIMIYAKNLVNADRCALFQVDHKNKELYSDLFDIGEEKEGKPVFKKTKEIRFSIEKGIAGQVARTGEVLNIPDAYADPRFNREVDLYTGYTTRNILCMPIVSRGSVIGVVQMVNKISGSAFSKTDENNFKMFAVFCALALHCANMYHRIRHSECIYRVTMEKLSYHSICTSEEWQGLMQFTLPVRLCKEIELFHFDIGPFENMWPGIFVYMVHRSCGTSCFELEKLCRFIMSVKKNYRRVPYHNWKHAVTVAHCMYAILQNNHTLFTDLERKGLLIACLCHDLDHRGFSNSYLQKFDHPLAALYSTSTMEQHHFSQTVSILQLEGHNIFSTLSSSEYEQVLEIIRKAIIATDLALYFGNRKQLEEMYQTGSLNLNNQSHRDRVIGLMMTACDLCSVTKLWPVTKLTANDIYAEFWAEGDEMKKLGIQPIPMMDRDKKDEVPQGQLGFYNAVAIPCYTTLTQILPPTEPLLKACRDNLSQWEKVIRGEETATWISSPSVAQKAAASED
- measurement.description: PDE10A enzyme activity inhibition test (Scintillation Proximity Assay, [3H]cGMP substrate)
- Assay type: biochemical
- condition.summary: compound 10 μM; control without compound = 0%, without compound and enzyme = 100%; read-out: Inhibitory rate (%) (10 μM)
reported.endpoint: inhibition at 10 µM
Please answer using a numeric value trailed by its unit.

Some compounds with known inhibition at 10 µM results, for comparison:
Name the recorded inhibition at 10 µM of the compound listed here: CCc1nn(-c2ccc(Oc3nc4cccnc4n3C)cc2)c2ncccc12 [Example 12]
101%

Give inhibition at 10 µM for Cn1c(Oc2ccc(-n3c4ncccc4n4ccnc34)cc2)nc2ccccc21 [Example 9]
96%

Quick one: give measured inhibition at 10 µM for CC(=O)Cn1c(Oc2ccc(-n3c4ncccc4n4ccnc34)cc2)nc2ccccc21 [Example 10]
109%

Using the record for CC(C)(O)Cn1c(Oc2ccc(-n3c4ncccc4n4ccnc34)cc2)nc2ccccc21 [Example 11] , state its measured inhibition at 10 µM.
106%

Identify measured inhibition at 10 µM associated with Cn1c(Oc2ccc(-n3c4ncccc4n4ccnc34)cc2)nc2cccnc21 [Example 13]
106%

Continuing:
Give inhibition at 10 µM for Cc1cn2cccc(-c3ccc(Oc4nc5ccccc5[nH]4)cc3)c2n1 [Example 1]
98%

# return recorded inhibition at 10 µM for entry CCn1nc2cccnc2c1-c1ccc(Oc2nc3ccccc3n2C)cc1 [Example 4]
102%

Specify reported inhibition at 10 µM for the compound shown: Cc1ccnc2c1n1ccnc1n2-c1ccc(Oc2nc3cccnc3n2C)cc1 [Example 15]
95%

For the compound c1ccc2[nH]c(Oc3ccc(-c4cccn5ccnc45)cc3)nc2c1 [Example 2] , give its measured inhibition at 10 µM value.
98%

---

- tested.target: human PDE10A enzyme (Homo sapiens, UniProt Q9Y233)
- Construct: Human PDE10A full-length gene was transfected into Sf9 or COS-7 cells; His-tag; made in house; host or cells: Sf9 or COS-7 cells
- measurement.description: PDE10A enzyme activity inhibition test (Scintillation Proximity Assay, [3H]cGMP substrate)
- Format: biochemical
- condition.summary: compound 10 μM; control without compound = 0%, without compound and enzyme = 100%; read-out: Inhibitory rate (%) (10 μM)
// reported inhibition at 10 µM for each item listed
Provide the reading as a plain figure in %.

See these solved cases before continuing.
Answer with the recorded inhibition at 10 µM for the molecule listed here: CCc1nn(-c2ccc(Oc3nc4ccccc4n3C)cc2)c2ncccc12 [Example 8]
104

Please list inhibition at 10 µM recorded for the molecule c1ccc2[nH]c(Oc3ccc(C4CCCn5ccnc54)cc3)nc2c1 (centres unmarked) [Example 5]
51

Retrieve inhibition at 10 µM measured for COCCn1c(Oc2ccc(-n3c4nccc(C)c4n4ccnc34)cc2)nc2cccnc21 [Example 16] and print it.
105

Next:
For the molecule CCn1nc2cccnc2c1-c1ccc(Oc2nc3ccccc3[nH]2)cc1 [Example 3] , give its measured inhibition at 10 µM value.
102

# return recorded inhibition at 10 µM for entry COCCn1c(Oc2ccc(-n3c4ncccc4n4ccnc34)cc2)nc2cccnc21 [Example 14]
105

---

- tested.target: human PDE10A enzyme (Homo sapiens, UniProt Q9Y233)
- Construct: Human PDE10A full-length gene was transfected into Sf9 or COS-7 cells; His-tag; made in house; host or cells: Sf9 or COS-7 cells
- measurement.description: PDE10A enzyme activity inhibition test (Scintillation Proximity Assay, [3H]cGMP substrate)
- Assay type: biochemical
- condition.summary: compound 0.1 μM; control without compound = 0%, without compound and enzyme = 100%; read-out: Inhibitory rate (%) (0.1 μM)
reported.endpoint: inhibition at 0.1 µM (%)
Give the value in % but do not write % after it.

Dear colleague, please send me the reported inhibition at 0.1 µM for COCCn1c(Oc2ccc(-n3c4nccc(C)c4n4ccnc34)cc2)nc2cccnc21 when you can.
98

Fill in inhibition at 0.1 µM for record Cn1c(=O)c2cccnc2n1-c1ccc(Oc2nc3ccccc3[nH]2)cc1
59

More entries:
Return inhibition at 0.1 µM (reported value) for this compound: CCc1nn(-c2ccc(Oc3nc4ccccc4n3C)cc2)c2ncccc12
93

Return value of inhibition at 0.1 µM for input Cn1c(Oc2ccc(-n3c4ncccc4n4ccnc34)cc2)nc2cccnc21 , no commentary.
97

---

This section presents compounds with their documented melting point values.

Note down melting point recorded for Cn1c(Oc2ccc(-n3c4ncccc4n4ccnc34)cc2)nc2ccccc21
232 to 234 °C

Give the measured melting point for Cc1ccnc2c1n1ccnc1n2-c1ccc(Oc2nc3cccnc3n2C)cc1
236 to 239 °C

Next:
Report melting point for COCCn1c(Oc2ccc(-n3c4nccc(C)c4n4ccnc34)cc2)nc2cccnc21
190 to 192 °C

Return value of melting point for input CC(=O)Cn1c(Oc2ccc(-n3c4ncccc4n4ccnc34)cc2)nc2ccccc21 , no commentary.
189 to 192 °C

Identify measured melting point corresponding to CC(C)(O)Cn1c(Oc2ccc(-n3c4ncccc4n4ccnc34)cc2)nc2ccccc21
208 to 211 °C

For the compound Cn1c(Oc2ccc(-n3c4ncccc4n4ccnc34)cc2)nc2cccnc21 , give its reported melting point.
228 to 231 °C

Quickly give me recorded melting point for COCCn1c(Oc2ccc(-n3c4ncccc4n4ccnc34)cc2)nc2cccnc21
178 to 182 °C

---

- tested.target: human PDE10A enzyme (Homo sapiens, UniProt Q9Y233)
- Construct: Human PDE10A full-length gene was transfected into Sf9 or COS-7 cells; His-tag; made in house; host or cells: Sf9 or COS-7 cells
- measurement.description: PDE10A enzyme activity inhibition test (Scintillation Proximity Assay, [3H]cGMP substrate)
- Format: biochemical
- condition.summary: compound 0.1 μM; control without compound = 0%, without compound and enzyme = 100%; read-out: Inhibitory rate (%) (0.1 μM)
Record True whenever inhibition at 0.1 µM is at 90% or higher; record False when lower.

Could you tell me if the measured inhibition at 0.1 µM of Cc1ccnc2c1n1ccnc1n2-c1ccc(Oc2nc3cccnc3n2C)cc1 [Example 15] reaches 90% or more?
True

In plain terms: is recorded inhibition at 0.1 µM at least 90% for CC(C)(O)Cn1c(Oc2ccc(-n3c4ncccc4n4ccnc34)cc2)nc2ccccc21 [Example 11] ?
True

Determine whether measured inhibition at 0.1 µM meets or exceeds 90% for CC(=O)Cn1c(Oc2ccc(-n3c4ncccc4n4ccnc34)cc2)nc2ccccc21 [Example 10]
True

Determine whether this compound has inhibition at 0.1 µM no lower than 90%: Cc1cn2cccc(-c3ccc(Oc4nc5ccccc5[nH]4)cc3)c2n1 [Example 1]
False

Determine whether measured inhibition at 0.1 µM meets or exceeds 90% for c1ccc2[nH]c(Oc3ccc(C4CCCn5ccnc54)cc3)nc2c1 (stereo not shown) [Example 5]
False

New cases:
Does CCc1nn(-c2ccc(Oc3nc4cccnc4n3C)cc2)c2ncccc12 [Example 12] have a reported inhibition at 0.1 µM of at least 90%?
True
